- EXPERIMENTAL DETAILS: NCI Yeast Anticancer Drug Screen. Data for the mec2-1 strain (AID 157)
- TEST SETTINGS: S. cerevisiae mec2-1 strain, at 50.0 µM
The panel holds about 79,000 compounds, 15% with a hit somewhere; the sample as a whole holds those more often. Activity calls are given as the source filed them. Cut-off read from the data, not from the text of the source: active = growth inhibition above about 70%; inactive = the rest.
# valid calls are active, inactive; nothing else

Consider the worked cases shown below.
MOLECULE	CLASS NAME
CCOc1ccc2ccccc2c1OP(=O)(OCC)OCC	inactive
COc1ccc(/C=C(/C)[N+](=O)[O-])cc1OC	active
S=C([SH2+])[SH2+].S=C([SH2+])[SH2+].[Pt+2].c1ccc(C[P+](c2ccccc2)(c2ccccc2)c2ccccc2)cc1	inactive
O=NNc1ncc([N+](=O)[O-])cn1	inactive
CC(=O)C(Sc1ccccc1[N+](=O)[O-])C(C)=O.[Co]	inactive

Q: How was c1ccc2c(C3NCCc4[nH]cnc43)cccc2c1 (centres undefined) classified in this test?
Result: inactive

Q: Another molecule to look at: CC(C)N([PH2+]N(C(C)C)C(C)C)C(C)C.[C-]#[O+].[C-]#[O+].[C-]#[O+].[C-]#[O+].[C-]#[O+].[Mo]
Result: inactive

Q: Another molecule to look at: O=C(O)Cc1ccc(O)c(O)c1.[Pt].c1ccc([PH+](c2ccccc2)c2ccccc2)cc1.c1ccc([PH+](c2ccccc2)c2ccccc2)cc1
Result: inactive
